# Test system: HSSY-II tumor spheroid viability
# procedure.text: Anticancer human tumor HSSY-II cell line growth inhibition; active means viability on the fitted dose curve at most 10% of control; inactive means the rest;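 further: spheroids exposed to compounds for seven days before reading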
# measurement.setup: second compound 0.03 µM; first compound 1 µM; spheroids with HUVEC and MSC
Write down one outcome, taken from active, inactive

# outcome recorded in this test, key = COc1cc(C)[nH]c(=O)c1CN1CCc2c(Cl)cc(C(OC)C3COC3)c(Cl)c2C1=O (stereo unspecified) + CC[C@@]1(O)C(=O)OCc2c1cc1n(c2=O)Cc2cc3c(CN(C)C)c(O)ccc3nc2-1 inactive

What is the recorded call for this compound in the test? COc1ccc([C@@H](O)c2cc(-c3ncnc4cc(N5CCOCC5)ccc34)c(F)cc2Cl)nn1 + CC[C@@]1(O)C(=O)OCc2c1cc1n(c2=O)Cc2cc3c(CN(C)C)c(O)ccc3nc2-1 active

Dear all, I need the recorded test outcome for CC(C)n1c(=O)n(C)c2cnc3cc(F)c(-c4ccc(OCCCN5CCCCC5)nc4)cc3c21 + CC[C@@]1(O)C(=O)OCc2c1cc1n(c2=O)Cc2cc3c(CN(C)C)c(O)ccc3nc2-1 , thank you. active

Given CC1COCCN1c1cc(-c2ccnn2C)c2ccnc(-c3ccn[nH]3)c2n1 (stereo unspecified) + CC[C@@]1(O)C(=O)OCc2c1cc1n(c2=O)Cc2cc3c(CN(C)C)c(O)ccc3nc2-1 , state the outcome it received in this test. active

Per the records of this test, what outcome belongs to Cc1cc(C)c(CNC(=O)c2cc(-c3ccc(CN4CCOCC4)cc3)cc3c2cnn3C2CCCC2)c(=O)[nH]1 + CC[C@@]1(O)C(=O)OCc2c1cc1n(c2=O)Cc2cc3c(CN(C)C)c(O)ccc3nc2-1 ? active

Tell me the recorded outcome of this test for [2H]c1nc(C)nc([2H])c1-c1cc(NC[C@@H](C)c2cccc3c(C(=O)NC)ccnc23)ncn1 + CC[C@@]1(O)C(=O)OCc2c1cc1n(c2=O)Cc2cc3c(CN(C)C)c(O)ccc3nc2-1 . inactive
